# System: Streptomyces viridochromogenes
# EXPERIMENT_NOTES: Antibacterial activity against Streptomyces viridochromogenes Tu 57 at 80 ug/disk
# Format: functional, organism-based
Calls of active or inactive are those of the source. The calls are words filed in the database; no cut-off is given here.
ASSAY_ENDPOINT: Activity

INSERT INTO assay_data (compound, measured_result) VALUES
  ('CC1=C[C@H]2[C@@H](C(C)(C)O)CC[C@@](C)(O)[C@H]2CC1', 'inactive'),
  ('CC(C)[C@H]1CC[C@@](C)(O)[C@H]2CC(=O)C(CO)=C[C@@H]12', 'inactive'),
  ('C[C@H]1C(=O)C[C@H]2[C@@H](C1O)[C@@H](C(C)(C)O)CC[C@@]2(C)O (some centres undefined)', 'inactive'),
  ('CC1=C[C@H]2[C@@H](C(C)C)CC[C@@](C)(O)[C@H]2CC1=O', 'inactive');

---

# Test system: Candida albicans
# EXPERIMENT_NOTES: Antifungal activity against Candida albicans at 80 ug/disk
# Assay type: functional, organism-based
Calls of active or inactive are those of the source. The rule behind the calls is not given here.
ASSAY_ENDPOINT: Activity

INSERT INTO results (compound, assay_target, assay_endpoint, measured_result) VALUES
  ('CC1=C[C@H]2[C@@H](C(C)(C)O)CC[C@@](C)(O)[C@H]2CC1', 'Candida albicans', 'Activity', 'inactive'),
  ('C[C@H]1C(=O)C[C@H]2[C@@H](C1O)[C@@H](C(C)(C)O)CC[C@@]2(C)O (some centres undefined)', 'Candida albicans', 'Activity', 'inactive'),
  ('CC(C)[C@H]1CC[C@@](C)(O)[C@H]2CC(=O)C(CO)=C[C@@H]12', 'Candida albicans', 'Activity', 'inactive'),
  ('CC1=C[C@H]2[C@@H](C(C)C)CC[C@@](C)(O)[C@H]2CC1=O', 'Candida albicans', 'Activity', 'inactive');

The values you see were collected from ChEMBL document CHEMBL1142058.
